B1: LINE1-full (parent)
chain: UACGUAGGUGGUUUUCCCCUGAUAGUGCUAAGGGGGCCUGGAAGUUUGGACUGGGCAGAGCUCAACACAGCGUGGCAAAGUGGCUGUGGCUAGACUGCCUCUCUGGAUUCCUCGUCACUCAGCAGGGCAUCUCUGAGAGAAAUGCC

Variants of: B1
Test: self-cleavage, relative activity (ratio to wild type); higher = more cleavage; in vitro, sequencing; the parent is a self-cleaving ribozyme
OBSERVATION TYPE: self-cleavage
Could you respond with only the numeric value?

| MUTATION LABEL | ASSAY VALUE |
| --- | --- |
| U62C A92G | 0.04 |
| U1C C146U | 1.08 |
| A67G U91C | 0.16 |
| U26C A94G | 0.39 |
| U109A A117G | 1.42 |

Reported self-cleavage for C3U U62G was 0.07

Reported self-cleavage for C99U U119A was 0.79

Reported self-cleavage for U1C U104C was 0.68

Reported self-cleavage for U23G A42G was 1.46

Reported self-cleavage for C61U A124G was 0.04

Reported self-cleavage for A24C A77G was 2.76

Values were extracted from the RNAGym collection of RNA variant scans (doi:10.7554/elife.90254).
